Where do these numbers come from? They come from patent US9255090B2.

measured_quantity: IC50 (nM)
API: value field is a number in nM; no unit string.

For the record COc1ccc(CC(=O)O)cc1-c1ccc(F)c2c1CN(C(=O)CC(c1ccccc1)c1ccc(Cl)cc1)CC2 (racemic) , what value of IC50 is listed for hCRTH2 receptor (Homo sapiens (Human))?
48.1

For the record COc1cccc(OCC(=O)O)c1-c1ccc(F)c2c1CN(C(=O)OCc1ccccc1)CC2 , what value of IC50 is listed for hCRTH2 receptor (Homo sapiens (Human))?
23.5

For the record Cc1ccc(CC(=O)O)cc1-c1ccc(F)c2c1CN(C(=O)OCc1ccccc1)CC2 , what value of IC50 is listed for hCRTH2 receptor (Homo sapiens (Human))?
25.6
